- System: Bacteroides thetiotaomicron ATCC 29741
- Method notes: Antimicrobial susceptibility, MIC by broth microdilution (CLSI), QC strain
- Type: cell-based
- Protocol conditions: Bacteroides, ATCC29741, read-out: MIC, QC ATCC 29741
Observation type: MIC
Field note: include the unit after the figure.

- Compound: "Cc1ncc([N+](=O)[O-])n1CCO [MTZ, Metronidazole]"
  System name: "Bacteroides thetiotaomicron ATCC 29741"
  Observation type: "MIC"
  Result value: "2 µg/mL"
- Compound: "O=C(N[C@H](CO)[C@H](O)c1ccc([N+](=O)[O-])cc1)C(Cl)Cl [CHL, Chloramphenicol]"
  System name: "Bacteroides thetiotaomicron ATCC 29741"
  Observation type: "MIC"
  Result value: "8 µg/mL"
- Compound: "C[C@@H](O)[C@H]1C(=O)N2C(C(=O)O)=C(S[C@@H]3CN[C@H](C(=O)N(C)C)C3)[C@H](C)[C@H]12 [MEM, Meropenem]"
  System name: "Bacteroides thetiotaomicron ATCC 29741"
  Observation type: "MIC"
  Result value: "0.5 µg/mL"
- Compound: "COc1c(N2C[C@@H]3CCCN[C@@H]3C2)c(F)cc2c(=O)c(C(=O)O)cn(C3CC3)c12 [MXF, Moxifloxacin]"
  System name: "Bacteroides thetiotaomicron ATCC 29741"
  Observation type: "MIC"
  Result value: "8 µg/mL"

In: Record request: MIC value, item CO/N=C(\C(=O)N[C@@H]1C(=O)N2C(C(=O)O)=CCS[C@H]12)c1csc(N)n1 [CTZ, Ceftizoxime]
Out: 16 µg/mL
